- TARGET SYSTEM: Cbl-b (Homo sapiens)
- Construct: Cbl-b-HiBit KI Jurkat Cells were purchased from Promega; host or cells: Cbl-b-HiBiT knock-in Jurkat cells
- ASSAY COMMENT: Cbl-b Degradation Method B (Nano-Glo HiBiT lytic detection)
- Assay type: cell-based
- TEST CONDITIONS: Cbl-b-HiBit KI Jurkat Cells, incubated at least 6-24 hours; half maximal degradation; read-out: Cbl-b Degredation Method B IC50
METRIC: DC50

{"COMPOUND": "C[C@@H]1c2nc(N3CCC(O[C@H]4CC[C@H](CN5CCN(Cc6cc7c(c(C(F)(F)F)c6)CN(c6cccc(C8(Cc9nncn9C)CC(C#N)C8)c6)C7=O)C(C)(C)C5)CC4)CC3)ccc2C(=O)N1C1CCC(=O)NC1=O (single isomer, unassigned) [Example 309]", "TARGET SYSTEM": "Cbl-b (Homo sapiens)", "MEASURED": "> 0.5 µM"}
{"COMPOUND": "Cn1cnnc1CC1(c2cccc(NC(=O)c3cc(CN4CCC[C@H](CN5CCC(CN6CCN(c7ccc8c(c7)C(=O)N(C7CCC(=O)NC7=O)C8=O)CC6)CC5)C4)nc(C4CC4)n3)c2)COC1 (stereo partly drawn) [Example 19]", "TARGET SYSTEM": "Cbl-b (Homo sapiens)", "MEASURED": "< 0.005 µM"}
{"COMPOUND": "Cn1cnnc1CC1(c2cccc(N3Cc4c(cc(N5CCC6(CC5)CN(CC5CCN(c7ccc8c(c7)C(=O)N(C7CCC(=O)NC7=O)C8=O)CC5)C6)cc4C(F)(F)F)C3=O)c2)COC1 (stereo not drawn) [Example 135]", "TARGET SYSTEM": "Cbl-b (Homo sapiens)", "MEASURED": "> 0.5 µM"}
{"COMPOUND": "CC1c2nc(N3CCC(O[C@H]4CC[C@H](CN5C[C@@H]6C[C@H]5CN6c5cc6c(c(C(F)(F)F)c5)CN(c5cccc([C@]7(Cc8nncn8C)C[C@H](C#N)C7)c5)C6=O)CC4)CC3)ccc2C(=O)N1C1CCC(=O)NC1=O (stereo partly drawn) [Example 182]", "TARGET SYSTEM": "Cbl-b (Homo sapiens)", "MEASURED": "0.005 to 0.05 µM"}
{"COMPOUND": "Cn1cnnc1CC1(c2cccc(-n3cc4c(C(F)(F)F)cc(CN5CCC[C@H](CN6CCC[C@@H](CN7CCN(c8ccc9c(c8F)CN(C8CCC(=O)NC8=O)C9=O)CC7)C6)C5)cc4n3)c2)COC1 (stereo partly drawn) [Example 257]", "TARGET SYSTEM": "Cbl-b (Homo sapiens)", "MEASURED": "> 0.5 µM"}
{"COMPOUND": "CC1c2nc(N3CCC(O[C@H]4CC[C@@H](CN5C[C@@H]6C[C@H]5CN6Cc5cc6c(c(C(F)(F)F)c5)CN(c5cccc(C7(Cc8nncn8C)CCC7)c5)C6=O)CC4)CC3)ccc2C(=O)N1C1CCC(=O)NC1=O (stereo partly drawn) [Example 223]", "TARGET SYSTEM": "Cbl-b (Homo sapiens)", "MEASURED": "< 0.005 µM"}
{"COMPOUND": "Cn1cnnc1CC1(c2cccc(N3Cc4c(cc(N5CC(OCC6CCN(c7ccc8c(c7)CN(C7CCC(=O)NC7=O)C8=O)CC6)C5)cc4C(F)(F)F)C3=O)c2)COC1 (stereo not drawn) [Example 21]", "TARGET SYSTEM": "Cbl-b (Homo sapiens)", "MEASURED": "> 0.5 µM"}
{"COMPOUND": "Cn1cnnc1CC1(c2cccc(N3Cc4c(cc(CN5CCN(C[C@H]6CC[C@H](OC7CCN(c8cccc9c8ncn9C8CCC(=O)NC8=O)CC7)CC6)CC5(C)C)cc4C(F)(F)F)C3=O)c2)CC(C#N)C1 (stereo partly drawn) [Example 314]", "TARGET SYSTEM": "Cbl-b (Homo sapiens)", "MEASURED": "0.05 to 0.5 µM"}
{"COMPOUND": "Cn1cnnc1CC1(c2cccc(N3Cc4c(cc(CN5CCC[C@H](CN6CCC(CC7CCN(c8ccc9c(c8)C(=O)N(C8CCC(=O)NC8=O)C9=O)CC7)CC6)C5)cc4C(F)(F)F)C3=O)c2)COC1 (stereo partly drawn) [Example 111]", "TARGET SYSTEM": "Cbl-b (Homo sapiens)", "MEASURED": "> 0.5 µM"}

* * *

Quick reference: DC50 of the listed items.
- TARGET SYSTEM: Cbl-b (Homo sapiens)
- Construct: Cbl-b-HiBit KI Jurkat Cells were purchased from Promega; host or cells: Cbl-b-HiBiT knock-in Jurkat cells
- ASSAY COMMENT: Cbl-b Degradation Method B (Nano-Glo HiBiT lytic detection)
- Type: cell-based
- TEST CONDITIONS: Cbl-b-HiBit KI Jurkat Cells, incubated at least 6-24 hours; half maximal degradation; read-out: Cbl-b Degredation Method B IC50

{"MOLECULE": "Cn1cnnc1CC1(c2cccc(N3Cc4c(cc(CN5CCC(Cn6cccc(CN7CCC(=O)NC7=O)c6=O)CC5)cc4C(F)(F)F)C3=O)c2)COC1", "DC50": "> 500 nM"}
{"MOLECULE": "Cn1cnnc1CC1(c2cccc(N3Cc4c(cc(CN5CCC5CC5CCN(c6ccc7c(c6)C(=O)N(C6CCC(=O)NC6=O)C7=O)CC5)cc4C(F)(F)F)C3=O)c2)COC1 (stereo not drawn)", "DC50": "> 500 nM"}
{"MOLECULE": "CC(C)n1c(=O)n(C2CCC(=O)NC2=O)c2ccc(N3CCC(CN4CCN(C[C@H]5CCCN(Cc6cc7c(c(C(F)(F)F)c6)CN(c6cccc(C8(Cc9nncn9C)CC(C#N)C8)c6)C7=O)C5)C(C)(C)C4)CC3)cc21 (stereo partly drawn)", "DC50": "< 5 nM"}

* * *

- TARGET SYSTEM: Cbl-b (Homo sapiens, UniProt Q13191)
- Construct: Cbl-b-HiBit KI Jurkat Cells were purchased from Promega; host or cells: Cbl-b-HiBiT knock-in Jurkat cells
- Sequence (Q13191 whole entry): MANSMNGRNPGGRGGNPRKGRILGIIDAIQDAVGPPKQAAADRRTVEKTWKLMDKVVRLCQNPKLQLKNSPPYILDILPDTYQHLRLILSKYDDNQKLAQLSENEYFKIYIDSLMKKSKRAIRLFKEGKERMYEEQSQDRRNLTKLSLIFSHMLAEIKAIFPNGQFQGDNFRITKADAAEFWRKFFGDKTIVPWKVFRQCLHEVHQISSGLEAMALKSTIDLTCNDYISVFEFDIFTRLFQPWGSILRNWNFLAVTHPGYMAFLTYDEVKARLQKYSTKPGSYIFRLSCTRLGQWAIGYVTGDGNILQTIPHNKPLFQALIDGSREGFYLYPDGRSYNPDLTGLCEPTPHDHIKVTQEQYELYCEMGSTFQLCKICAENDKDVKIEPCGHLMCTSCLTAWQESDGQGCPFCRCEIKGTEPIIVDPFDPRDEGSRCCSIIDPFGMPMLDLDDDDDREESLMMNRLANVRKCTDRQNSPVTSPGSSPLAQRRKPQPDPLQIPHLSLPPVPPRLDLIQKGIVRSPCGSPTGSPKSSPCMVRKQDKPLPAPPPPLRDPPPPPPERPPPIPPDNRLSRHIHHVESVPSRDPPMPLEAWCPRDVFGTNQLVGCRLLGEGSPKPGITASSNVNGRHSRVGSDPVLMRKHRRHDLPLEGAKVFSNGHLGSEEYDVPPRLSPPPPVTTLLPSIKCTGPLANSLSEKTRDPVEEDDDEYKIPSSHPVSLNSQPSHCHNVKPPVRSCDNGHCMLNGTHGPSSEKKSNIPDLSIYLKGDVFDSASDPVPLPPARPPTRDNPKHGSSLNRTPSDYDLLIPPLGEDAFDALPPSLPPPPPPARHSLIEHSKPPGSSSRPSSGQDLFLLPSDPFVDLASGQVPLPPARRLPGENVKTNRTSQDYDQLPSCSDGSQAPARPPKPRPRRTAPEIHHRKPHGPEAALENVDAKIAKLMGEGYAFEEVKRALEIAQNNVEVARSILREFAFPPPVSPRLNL
- ASSAY COMMENT: Cbl-b Degradation Method B (Nano-Glo HiBiT lytic detection)
- Assay type: cell-based
- TEST CONDITIONS: Cbl-b-HiBit KI Jurkat Cells, incubated at least 6-24 hours; half maximal degradation; read-out: Cbl-b Degredation Method B IC50

{"MOLECULE": "CC(C)n1c(=O)n(C2CCC(=O)NC2=O)c2cccc(N3CCC(O[C@H]4CC[C@H](CN5CCN(Cc6cc7c(c(C(F)(F)F)c6)CN(c6cccc([C@]8(Cc9nncn9C)C[C@@H](C#N)C8)c6)C7=O)C(C)(C)C5)CC4)CC3)c21 (stereo partly shown) [Example 275]", "DC50": "5 to 50 nM"}
{"MOLECULE": "Cn1cnnc1CC1(c2cccc(N3Cc4c(cc(CN5CCC[C@@H](CN6CCC(CC7CCN(c8ccc9c(c8)C(=O)N(C8CCC(=O)NC8=O)C9=O)CC7)CC6)C5)cc4C(F)(F)F)C3=O)c2)COC1 (stereo partly shown)", "DC50": "> 500 nM"}
{"MOLECULE": "Cn1cnnc1CC1(c2cccc(N3Cc4c(cc(CN5CCN(C[C@H]6CC[C@H](OC7CCN(c8ccc9c(c8)C(=O)N(C8CCC(=O)NC8=O)C9=O)CC7)CC6)CC5)cc4C(F)(F)F)C3=O)c2)COC1 (stereo partly shown)", "DC50": "< 5 nM"}
{"MOLECULE": "Cn1cnnc1C[C@]1(c2cccc(-n3cc4c(C(F)(F)F)cc(N5CC6(CCN(CC7CCN(c8ccc9c(c8Cl)CN(C8CCC(=O)NC8=O)C9=O)CC7)CC6)C5)cc4n3)c2)C[C@H](C#N)C1 (stereo partly shown)", "DC50": "5 to 50 nM"}
{"MOLECULE": "Cn1cnnc1CC1(c2cccc(N3Cc4c(cc(N5CC6(CCN(Cc7ccc8c(c7)C(=O)N(C7CCC(=O)NC7=O)C8=O)CC6)C5)cc4C(F)(F)F)C3=O)c2)COC1 (stereo not shown)", "DC50": "> 500 nM"}
{"MOLECULE": "Cn1cnnc1CC1(c2cccc(N3Cc4c(cc(N5CCC(CC6CN(c7ccc8c(c7)C(=O)N(C7CCC(=O)NC7=O)C8=O)C6)CC5)cc4C(F)(F)F)C3=O)c2)COC1 (stereo not shown)", "DC50": "> 500 nM"}
{"MOLECULE": "Cn1cnnc1CC1(c2cccc(N3Cc4c(cc(CN5CCC(c6ccc7c(c6)C(=O)N(C6CCC(=O)NC6=O)C7)CC5)cc4C(F)(F)F)C3=O)c2)COC1 (stereo not shown)", "DC50": "> 500 nM"}
{"MOLECULE": "C[C@@H]1c2nc(N3CCC(O[C@H]4CC[C@H](CN5CCN(Cc6cc7c(c(C(F)(F)F)c6)CN(c6cccc(C8(Cc9nncn9C)CC(C#N)C8)c6)C7=O)C6(CC6)C5)CC4)CC3)ccc2C(=O)N1C1CCC(=O)NC1=O (single isomer, unassigned) [Example 304]", "DC50": "< 5 nM"}
{"MOLECULE": "Cn1cnnc1CC1(c2cccc(N3Cc4c(cc(CN5CCC(N6CCC7(CCN(c8ccc9c(c8)C(=O)N(C8CCC(=O)NC8=O)C9=O)CC7)CC6)CC5)cc4C(F)(F)F)C3=O)c2)COC1 (stereo not shown)", "DC50": "> 500 nM"}
{"MOLECULE": "COc1cc(N2CCN(Cc3cc4c(c(C(F)(F)F)c3)CN(c3cccc(C5(Cc6nncn6C)COC5)c3)C4=O)CC2)cc2c1C(=O)N(C1CCC(=O)NC1=O)C2=O (stereo not shown)", "DC50": "> 500 nM"}

Provenance of the data: patent US20260184710A1
